// reported melting point per item

Solved entries (count: 4):
> print(dat)
                                   compound          obs.value
1  O=C(CC(c1ccccc1)c1ccccc1)N1CCN(C(=O)c2cc3ccccc3o2)CC1 [Compound 4]    130.5 to 132 °C
2  O=C(CC(c1ccccc1)c1ccccc1)N1CCN(Cc2cc3ccccc3o2)CC1 [Compound 6]    120.5 to 122 °C
3  O=C(CC(c1ccccc1)c1ccccc1)N1CCN(CC(O)c2cc3ccccc3o2)CC1 (centres unmarked) [Compound 3]  125.5 to 127.5 °C
4  O=C(CC(c1ccccc1)c1ccccc1)N1CCN(CCc2cc3ccccc3o2)CC1 [Compound 7]  123.3 to 124.1 °C

Proceeding to the next compound to report its melting point.
Entry O=C(/C=C/c1ccccc1)N1CCN(CC(O)c2cc3ccccc3o2)CC1 (centres unmarked) [Compound 1] ; melting point = 126.5 to 128 °C
